src = patent US20250009742A1

Test: Cell viability assay (EZ-Cytox), cytotoxicity
Type: cell-based
Conditions: human, HepAD38 cells, @100 μM, read-out: Cytotoxicity % Livability (@100 μM)
In plain terms, low viability at 65 h, 100 µM, meaning strictly below 80%, gives true (1), and everything else gives false (0).

COc1ncc(N(Cc2cc(C(F)F)[nH]n2)C(=O)Nc2ccc(F)c(C(F)F)n2)cn1 [Example 196] | true (1)
COc1ncc(N(Cc2cc(C(F)(F)F)[nH]n2)C(=O)Nc2cc(F)c(F)c(C#N)n2)cn1 [Example 151] | false (0)
N#Cc1ccc(N(Cc2cc(C(F)(F)F)[nH]n2)C(=O)Nc2ccc(F)c(Cl)c2)cn1 [Example 130] | true (1)
COc1ncc(N(Cc2cc(C(F)(F)F)[nH]n2)C(=O)Nc2cccc(C(F)(F)F)n2)cn1 [Example 225] | false (0)

// query Given COc1ncc(N(Cc2n[nH]c(C(F)(F)F)c2CC(C)O)C(=O)Nc2ccc(F)c(Cl)c2)cn1 (centres unmarked) [Example 95] , is recorded viability at 65 h, 100 µM strictly lower than 80%?
// result true (1)

// query Given COc1ccc(N(Cc2cc[nH]n2)C(=O)Nc2ccc(F)c(Cl)c2)cc1 [Example 34] , is recorded viability at 65 h, 100 µM strictly lower than 80%?
// result false (0)

// query Given COc1ncc(N(Cc2cc(C(F)(F)F)[nH]n2)C(=O)Nc2cnc(F)nc2)cn1 [Example 186] , is recorded viability at 65 h, 100 µM strictly lower than 80%?
// result false (0)
